# System: A549
# Experiment description: Cytotoxicity against human A549 cells assessed as cell viability after 6 days by MTT assay
# Assay type: functional, cell-based
Calls of active or inactive are those of the source. No cut-off for these calls is given here.
Readout type: Activity

In [3]: df
Out[3]:
                                   molecule    result
0  COc1cc(O)cc2c(CO)c(C)oc12 [PENICIFURAN A]  inactive
1  COc1cc(O)cc2c(COC(C)=O)c(C)oc12 [PENICIFURAN B]  inactive
2  CC(=O)CCC[C@@H]1Cc2cccc(O)c2C(=O)O1 [ASPERGILLUMARIN A]  inactive
3  CC(O)c1coc(=O)c2c(O)cc(O)c(O)c12 (stereo not drawn)  inactive
4  CC(=O)c1coc2c(O)cc(O)cc12 [PENICIFURAN D]  inactive
5   Cc1oc2c(O)cc(O)cc2c1C=O [PENICIFURAN C]  inactive
6  C[C@H](O)CCC[C@@H]1Cc2cccc(O)c2C(=O)O1 [ASPERGILLUMARIN B]  inactive
7  O=c1oc(CO)c(CO)c2cc(O)cc(O)c12 [PENICIMARIN F]  inactive

Data credit: ChEMBL document CHEMBL2331158
